TARGET_OR_TEST_SYSTEM: Cyclin-dependent kinase 4/cyclin D1 (Homo sapiens) (UniProt P11802+P24385)
METHOD_NOTES: Inhibition of CDK4/Cyclin D1 (unknown origin) at 10 uM relative to control
Assay type: protein-complex assay
inhibition for assorted compounds
Express your answer in %, writing the number without its unit.

Illustrative cases are given below, each with its answer.
Fc1cccc(-n2cnc3c(NCc4nc5c(F)c(F)ccc5[nH]4)nc(N4CCOCC4)nc32)c1 ... 97
Cn1cc(-n2cnc3c(NCc4nc5cc(Cl)c(Cl)cc5[nH]4)nc(N4CCOCC4)nc32)cn1 ... 48
Cc1cc(-n2cnc3c(NCc4nc5c(F)c(F)ccc5[nH]4)nc(N4CCOCC4)nc32)no1 ... 99

Using the record for Cn1cc(-n2cnc3c(NCc4nc5c(F)c(F)ccc5[nH]4)nc(N4CCOCC4)nc32)cn1 , state its measured inhibition.
99

====

TARGET_OR_TEST_SYSTEM: Casein kinase I isoform epsilon (Homo sapiens, UniProt P49674)
Sequence (P49674 whole entry, canonical isoform): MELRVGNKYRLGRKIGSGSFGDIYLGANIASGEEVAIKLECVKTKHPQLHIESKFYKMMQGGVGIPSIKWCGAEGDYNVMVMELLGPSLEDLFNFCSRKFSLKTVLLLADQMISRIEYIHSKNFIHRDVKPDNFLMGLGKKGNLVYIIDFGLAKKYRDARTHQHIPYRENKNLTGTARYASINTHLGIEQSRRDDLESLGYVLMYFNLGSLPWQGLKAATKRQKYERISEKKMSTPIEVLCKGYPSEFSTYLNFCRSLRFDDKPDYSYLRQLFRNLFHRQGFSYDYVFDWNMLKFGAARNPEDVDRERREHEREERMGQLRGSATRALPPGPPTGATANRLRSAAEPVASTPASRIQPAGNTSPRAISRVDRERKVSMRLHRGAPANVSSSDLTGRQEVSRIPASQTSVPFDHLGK
METHOD_NOTES: Inhibition of casein kinase 1epsilon (unknown origin)
OBSERVED_PROPERTY: pIC50
Interpret pIC50 as the negative base-10 log of the concentration measured in mol/L.

Here are 2 molecules together with their reported answers.
Fc1ccc2[nH]c(CNc3nc(N4CCOCC4)nc4c3ncn4-c3cscn3)nc2c1F ... 5.89
Cn1cc(-n2cnc3c(NCc4nc5cc(Cl)c(Cl)cc5[nH]4)nc(N4CCOC[C@H]4CO)nc32)cn1 ... 5.27

Indicate its recorded pIC50; the molecule in question is FC(F)n1cc(-n2cnc3c(NCc4nc5cc(Cl)c(Cl)cc5[nH]4)nc(N4CCOCC4)nc32)cn1
6.15

Output pIC50 of COc1cc2nc(CNc3nc(N4CCOCC4)nc4c3ncn4-c3cnn(C)c3)[nH]c2cc1Cl
5.58

Fill in reported pIC50 for this entry: Cn1cc(-n2cnc3c(NCc4nc5cc(Cl)c(Cl)cc5[nH]4)nc(N4CCOC[C@@H]4CO)nc32)cn1
6.84

====

TARGET_OR_TEST_SYSTEM: Cyclin-dependent kinase 13 (Homo sapiens, UniProt Q14004)
METHOD_NOTES: Inhibition of CDK13 (unknown origin) at 10 uM relative to control
Sequence (Q14004 whole entry, looked up): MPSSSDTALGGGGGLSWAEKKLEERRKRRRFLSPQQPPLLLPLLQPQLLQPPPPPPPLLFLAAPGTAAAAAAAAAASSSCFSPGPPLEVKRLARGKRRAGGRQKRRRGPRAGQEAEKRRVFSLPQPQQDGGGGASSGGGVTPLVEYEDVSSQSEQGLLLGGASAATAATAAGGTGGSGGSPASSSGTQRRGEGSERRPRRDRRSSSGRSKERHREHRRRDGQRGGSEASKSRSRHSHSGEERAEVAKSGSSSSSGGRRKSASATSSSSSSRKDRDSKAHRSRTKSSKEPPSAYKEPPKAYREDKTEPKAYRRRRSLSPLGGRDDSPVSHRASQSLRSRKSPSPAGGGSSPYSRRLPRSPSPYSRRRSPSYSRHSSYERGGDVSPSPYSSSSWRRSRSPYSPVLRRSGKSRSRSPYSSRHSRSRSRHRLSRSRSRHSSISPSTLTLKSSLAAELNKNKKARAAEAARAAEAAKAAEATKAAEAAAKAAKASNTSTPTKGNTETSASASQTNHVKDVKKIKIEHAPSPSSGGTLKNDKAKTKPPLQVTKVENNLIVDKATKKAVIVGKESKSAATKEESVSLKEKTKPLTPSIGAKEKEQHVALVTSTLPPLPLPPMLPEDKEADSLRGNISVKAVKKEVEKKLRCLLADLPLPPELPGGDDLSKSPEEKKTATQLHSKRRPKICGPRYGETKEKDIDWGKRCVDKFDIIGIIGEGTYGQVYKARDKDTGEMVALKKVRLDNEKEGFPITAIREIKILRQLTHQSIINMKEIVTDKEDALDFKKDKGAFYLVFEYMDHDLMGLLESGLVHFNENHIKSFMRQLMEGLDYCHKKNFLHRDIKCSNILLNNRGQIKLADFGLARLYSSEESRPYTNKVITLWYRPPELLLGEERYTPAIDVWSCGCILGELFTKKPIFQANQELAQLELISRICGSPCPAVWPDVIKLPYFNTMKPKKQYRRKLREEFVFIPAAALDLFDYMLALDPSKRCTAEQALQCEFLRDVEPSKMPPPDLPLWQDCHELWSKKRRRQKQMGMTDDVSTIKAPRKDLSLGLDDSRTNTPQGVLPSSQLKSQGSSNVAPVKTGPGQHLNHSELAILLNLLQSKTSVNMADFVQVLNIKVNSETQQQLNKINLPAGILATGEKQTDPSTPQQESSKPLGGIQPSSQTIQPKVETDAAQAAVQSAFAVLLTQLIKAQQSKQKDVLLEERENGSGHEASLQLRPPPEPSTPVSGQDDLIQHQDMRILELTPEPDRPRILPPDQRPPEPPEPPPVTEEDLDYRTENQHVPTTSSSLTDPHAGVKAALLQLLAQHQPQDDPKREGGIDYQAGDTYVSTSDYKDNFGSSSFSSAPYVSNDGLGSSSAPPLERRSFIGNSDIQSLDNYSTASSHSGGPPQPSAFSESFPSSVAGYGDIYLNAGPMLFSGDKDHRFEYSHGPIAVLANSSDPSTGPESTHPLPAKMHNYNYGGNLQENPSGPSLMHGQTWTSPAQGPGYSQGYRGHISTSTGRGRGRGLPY
OBSERVED_PROPERTY: inhibition (%)
Numeric only. Scale: %

Examples with their reported inhibition follow.
COc1cc2nc(CNc3nc(N4CCOCC4)nc4c3ncn4-c3cnn(C)c3)[nH]c2cc1Cl ... 12
Cn1cc(-n2cnc3c(NCc4nc5c(F)c(F)ccc5[nH]4)nc(N4CCOCC4)nc32)cn1 ... 100
Cc1cc(-n2cnc3c(NCc4nc5c(F)c(F)ccc5[nH]4)nc(N4CCOCC4)nc32)no1 ... 100

With those in mind, consider the next compound.
Query inhibition for Fc1cccc(-n2cnc3c(NCc4nc5c(F)c(F)ccc5[nH]4)nc(N4CCOCC4)nc32)c1
100

====

Entries annotated with measured inhibition (INH)
TARGET_OR_TEST_SYSTEM: Cytochrome P450 2D6 (Homo sapiens, UniProt P10635)
Sequence (P10635 whole entry): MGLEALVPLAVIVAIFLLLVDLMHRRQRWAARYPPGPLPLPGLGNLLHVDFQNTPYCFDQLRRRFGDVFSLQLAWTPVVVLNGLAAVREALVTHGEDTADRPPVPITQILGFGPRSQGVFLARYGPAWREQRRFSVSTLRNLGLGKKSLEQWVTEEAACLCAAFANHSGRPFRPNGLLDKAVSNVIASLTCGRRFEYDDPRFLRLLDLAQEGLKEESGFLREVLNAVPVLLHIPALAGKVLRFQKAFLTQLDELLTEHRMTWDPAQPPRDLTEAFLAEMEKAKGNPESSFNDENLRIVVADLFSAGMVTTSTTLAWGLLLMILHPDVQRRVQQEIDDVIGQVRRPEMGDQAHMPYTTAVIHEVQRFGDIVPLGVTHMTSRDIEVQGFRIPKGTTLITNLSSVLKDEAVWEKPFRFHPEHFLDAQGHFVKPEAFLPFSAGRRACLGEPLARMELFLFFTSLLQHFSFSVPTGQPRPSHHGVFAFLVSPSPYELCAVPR
METHOD_NOTES: Inhibition of CYP2D6 (unknown origin)
Assay type: ADME
Express the result in % but write the number alone.

Fc1ccc2[nH]c(CNc3nc(N4CCOCC4)nc4c3ncn4-c3cscn3)nc2c1F ... 57
Cn1cc(-n2cnc3c(NCc4nc5c(F)c(F)ccc5[nH]4)nc(N4CCOCC4)nc32)cn1 ... -3
Cn1cc(-n2cnc3c(NCc4nc5cc(F)c(F)cc5[nH]4)nc(N4CCOCC4)nc32)cn1 ... 2

Report inhibition (INH) on Cytochrome P450 2D6 (Homo sapiens, UniProt P10635) for this entry: Cn1cc(-n2cnc3c(NCc4nc5cc(Cl)c(Cl)cc5[nH]4)nc(N4CCOCC4)nc32)cn1
66

====

METHOD_NOTES: AUC (last) in mouse at 20 mg/kg, ip
Assay type: ADME, organism-based
Design: time 0 - last, route intraperitoneal, dose 20 mg/kg
PARTICULARS: in vivo
OBSERVED_PROPERTY: AUC(0-t) (µM·h)
Just the number in µM·h, nothing appended.

Item Cn1cc(-n2cnc3c(NCc4nc5cc(Cl)c(Cl)cc5[nH]4)nc(N4CCOC[C@H]4CO)nc32)cn1 : provide AUC(0-t)
10

====

// reported inhibition (INH) for each item listed
TARGET_OR_TEST_SYSTEM: Cytochrome P450 2C9 (Homo sapiens)
Sequence (P11712 whole entry): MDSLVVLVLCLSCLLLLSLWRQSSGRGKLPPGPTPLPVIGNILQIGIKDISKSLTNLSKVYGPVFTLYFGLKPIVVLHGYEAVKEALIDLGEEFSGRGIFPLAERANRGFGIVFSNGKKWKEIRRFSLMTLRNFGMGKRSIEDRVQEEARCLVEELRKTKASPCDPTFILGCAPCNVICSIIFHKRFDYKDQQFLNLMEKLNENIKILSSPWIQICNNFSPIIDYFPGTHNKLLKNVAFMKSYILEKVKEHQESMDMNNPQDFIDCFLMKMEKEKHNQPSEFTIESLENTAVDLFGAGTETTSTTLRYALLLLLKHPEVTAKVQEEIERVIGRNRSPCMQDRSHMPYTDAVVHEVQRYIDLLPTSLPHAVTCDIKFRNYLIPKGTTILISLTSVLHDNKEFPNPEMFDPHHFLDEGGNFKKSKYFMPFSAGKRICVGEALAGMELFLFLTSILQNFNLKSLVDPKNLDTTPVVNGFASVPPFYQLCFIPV
METHOD_NOTES: Inhibition of CYP2C9 (unknown origin)
Format: ADME
Expressed in %, but write only the number.

Some entries whose results are on file:
Cn1cc(-n2cnc3c(NCc4nc5cc(Cl)c(Cl)cc5[nH]4)nc(N4CCOC[C@H]4CO)nc32)cn1 ... 54
Cn1cc(-n2cnc3c(NCc4nc5c(F)c(F)ccc5[nH]4)nc(N4CCOCC4)nc32)cn1 ... 23
Cn1cc(-n2cnc3c(NCc4nc5cc(F)c(F)cc5[nH]4)nc(N4CCOCC4)nc32)cn1 ... 23
Cc1cc(-n2cnc3c(NCc4nc5c(F)c(F)ccc5[nH]4)nc(N4CCOCC4)nc32)no1 ... 23
Cn1cc(-n2cnc3c(NCc4nc5cc(Cl)c(Cl)cc5[nH]4)nc(N4CCOC[C@@H]4CO)nc32)cn1 ... 69

Here is another compound to look at.
Give a short answer stating reported inhibition (INH) for Cn1cc(-n2cnc3c(NCc4nc5cc(Cl)c(Cl)cc5[nH]4)nc(N4CCOCC4)nc32)cn1 .
70

====

TARGET_OR_TEST_SYSTEM: Cytochrome P450 3A4 (Homo sapiens)
Sequence (P08684 whole entry): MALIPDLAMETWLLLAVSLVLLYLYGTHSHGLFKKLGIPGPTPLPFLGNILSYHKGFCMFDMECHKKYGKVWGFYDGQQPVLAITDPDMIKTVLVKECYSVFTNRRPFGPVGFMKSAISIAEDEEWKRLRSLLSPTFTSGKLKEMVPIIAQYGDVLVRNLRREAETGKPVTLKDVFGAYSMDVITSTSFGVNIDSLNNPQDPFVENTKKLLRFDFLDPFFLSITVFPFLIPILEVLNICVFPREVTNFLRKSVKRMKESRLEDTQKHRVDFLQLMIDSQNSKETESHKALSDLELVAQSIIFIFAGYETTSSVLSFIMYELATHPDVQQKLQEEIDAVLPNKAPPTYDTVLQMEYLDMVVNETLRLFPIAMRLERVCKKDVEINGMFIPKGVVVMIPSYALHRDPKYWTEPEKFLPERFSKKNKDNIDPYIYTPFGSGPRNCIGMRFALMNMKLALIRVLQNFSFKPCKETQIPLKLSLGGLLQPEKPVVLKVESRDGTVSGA
METHOD_NOTES: Inhibition of CYP3A4 (unknown origin)
Assay type: ADME
OBSERVED_PROPERTY: inhibition (INH) (%)
Kindly provide the numeric value in % only, without the unit symbol.

Cn1cc(-n2cnc3c(NCc4nc5cc(F)c(F)cc5[nH]4)nc(N4CCOCC4)nc32)cn1 ... 55

Name the recorded inhibition (INH) of the item Cn1cc(-n2cnc3c(NCc4nc5c(F)c(F)ccc5[nH]4)nc(N4CCOCC4)nc32)cn1 in your answer.
56

Tell me measured inhibition (INH) for Fc1ccc2[nH]c(CNc3nc(N4CCOCC4)nc4c3ncn4-c3cscn3)nc2c1F please.
89

Write down inhibition (INH) measured for item Cn1cc(-n2cnc3c(NCc4nc5cc(Cl)c(Cl)cc5[nH]4)nc(N4CCOC[C@@H]4CO)nc32)cn1
77

For Cc1cc(-n2cnc3c(NCc4nc5c(F)c(F)ccc5[nH]4)nc(N4CCOCC4)nc32)no1 , write its inhibition (INH).
55

Give reported inhibition (INH) value for Cn1cc(-n2cnc3c(NCc4nc5cc(Cl)c(Cl)cc5[nH]4)nc(N4CCOCC4)nc32)cn1
89

State its inhibition (INH): Cn1cc(-n2cnc3c(NCc4nc5cc(Cl)c(Cl)cc5[nH]4)nc(N4CCOC[C@H]4CO)nc32)cn1
54

====

TARGET_OR_TEST_SYSTEM: Casein kinase I isoform delta (Homo sapiens, UniProt P48730)
Sequence (P48730 whole entry, canonical isoform): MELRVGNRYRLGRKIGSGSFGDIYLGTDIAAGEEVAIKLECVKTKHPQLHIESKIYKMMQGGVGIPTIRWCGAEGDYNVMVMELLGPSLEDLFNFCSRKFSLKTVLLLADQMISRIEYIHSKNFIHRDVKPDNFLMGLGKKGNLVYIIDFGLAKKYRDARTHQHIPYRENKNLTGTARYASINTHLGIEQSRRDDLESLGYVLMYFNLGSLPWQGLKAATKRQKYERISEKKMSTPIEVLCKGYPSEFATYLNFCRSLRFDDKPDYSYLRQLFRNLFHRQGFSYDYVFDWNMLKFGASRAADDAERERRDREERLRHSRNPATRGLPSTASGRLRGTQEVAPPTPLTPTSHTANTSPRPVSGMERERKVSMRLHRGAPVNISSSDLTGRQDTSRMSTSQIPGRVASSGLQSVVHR
METHOD_NOTES: Inhibition of casein kinase 1delta (unknown origin)
Documented IC50 across a set of compounds
Write the quantity with the unit trailing the number.

Worked set:
Fc1ccc2[nH]c(CNc3nc(N4CCOCC4)nc4c3ncn4-c3cscn3)nc2c1F ... 870 nM
Cn1cc(-n2cnc3c(NCc4nc5cc(Cl)c(Cl)cc5[nH]4)nc(N4CCOC[C@@H]4CO)nc32)cn1 ... 333 nM
Cn1cc(-n2cnc3c(NCc4nc5cc(Cl)c(Cl)cc5[nH]4)nc(N4CCOC[C@H]4CO)nc32)cn1 ... 6070 nM

Next up:
Tell me its IC50 given FC(F)n1cc(-n2cnc3c(NCc4nc5cc(Cl)c(Cl)cc5[nH]4)nc(N4CCOCC4)nc32)cn1 as the entry.
1260 nM

====

Items are presented alongside their recorded pKd.
TARGET_OR_TEST_SYSTEM: Cyclin-dependent kinase 13 (Homo sapiens)
Please keep in mind that pKd is minus log10 of the molar concentration; only the number is needed.

Sample answers from the record:
FC(F)n1cc(-n2cnc3c(NCc4nc5cc(Cl)c(Cl)cc5[nH]4)nc(N4CCOCC4)nc32)cn1 ... 8.05
COc1cc2nc(CNc3nc(N4CCOCC4)nc4c3ncn4-c3cnn(C)c3)[nH]c2cc1Cl ... 8.70

Now consider a different compound.
Supply reported pKd belonging to this compound: Fc1ccc2[nH]c(CNc3nc(N4CCOCC4)nc4c3ncn4-c3cscn3)nc2c1F
8.22

====

TARGET_OR_TEST_SYSTEM: CDK4/Cyclin D3 (Homo sapiens) (UniProt P11802+P30281)
METHOD_NOTES: Inhibition of CDK4/Cyclin D3 (unknown origin) at 10 uM relative to control
Assay type: protein-complex assay
OBSERVED_PROPERTY: inhibition

Given Cc1cc(-n2cnc3c(NCc4nc5c(F)c(F)ccc5[nH]4)nc(N4CCOCC4)nc32)no1 , respond with its inhibition.
99%

Quickly give me recorded inhibition for Fc1cccc(-n2cnc3c(NCc4nc5c(F)c(F)ccc5[nH]4)nc(N4CCOCC4)nc32)c1
95%

Input Cn1cc(-n2cnc3c(NCc4nc5c(F)c(F)ccc5[nH]4)nc(N4CCOCC4)nc32)cn1 , output reported inhibition.
99%

Item Cn1cc(-n2cnc3c(NCc4nc5cc(Cl)c(Cl)cc5[nH]4)nc(N4CCOCC4)nc32)cn1 : provide inhibition
48%

// data source = ChEMBL document CHEMBL4804285
